# abundance fitness per record follows
B1: Calcium-binding protein 2, residues 155 to 219; numbered along this chain, Q9NPB3 (parent)
chain: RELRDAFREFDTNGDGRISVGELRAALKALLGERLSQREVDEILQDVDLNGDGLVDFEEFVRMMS

- Variants of: B1
- assayDetails: abundance fitness (aPCA) (normalised: wild type 0, dead -1); higher = more abundant; growth selection in yeast, the domain comes from the species named
- condition: Homo sapiens
reportedEndpoint: abundance fitness

macromoleculeSequence | reportedEndpoint | reportedMeasurement
RELRDAFREFDTNGDGRISVGELRAALKALLGERLSQREVDEILQDVDLYGDGLVDFEEFVRMMS [N50Y] | abundance fitness | -0.419
RELRDAFREFDTNGDGRISVGELRAALKALLGERLSQREVDEILQDVDLNGDGLVDFEEFRRMMS [V61R] | abundance fitness | -0.04
RELRDAFREFDTNGDGRISVGELRAALKALLGERLSQREVDENLQDVDLNGDGLVDFEEFVRMMS [I43N] | abundance fitness | 0.053
RELRDAFREFDTNGDGRISVFELRAALKALLGERLSQREVDEILQDVDLNGDGLVDFEEFVRMMS [G21F] | abundance fitness | 0.102

Measured values drawn from the Human Domainome abundance scans (Beltran et al. 2025) for this set.
